tested on: human peripheral blood cells; experiment: in vitro toxicities human peripheral blood cells; type: cell-based
Measured PMB LD50, listed per entry for reference.
Reply with just the number (in µM).

compound: CC(C)(C)C1OCC2(C)C(O)=C(C(=O)NCC3CCCCC3)C(=O)N12 (racemic) [(±)-2E]
unitInfo: µM
valueReported: 90.9

[Q] Please give the documented PMB LD50 of CC(C)(C)C1OCC2(C)C(=O)C(C(=O)NC34CC5CC(CC(C5)C3)C4)C(=O)N12 (racemic) [(±)-2A]
[A] 30.3
